Values compiled from paper PMC11046469.

Molecular target: ENL YEATS domain (AviSUMO-ENL YEATS) (Homo sapiens, UniProt Q03111)
Construct: encoding ENL YEATS (aa 1−148) was cloned in pET28a-; made in house; host or cells: E. coli BL21(DE3pLysS), co-expressed with BirA (pBirAcm)
Sequence (Q03111 1-148): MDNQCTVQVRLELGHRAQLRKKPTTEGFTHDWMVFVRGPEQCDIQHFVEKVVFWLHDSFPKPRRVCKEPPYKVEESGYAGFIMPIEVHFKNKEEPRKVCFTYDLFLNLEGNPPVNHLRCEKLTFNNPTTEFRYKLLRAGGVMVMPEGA
Test: Phage panning of BuK-containing 7-mer library against AviSUMO-ENL YEATS with Illumina NGS abundance
Details: sheet ENLR3: round 3 of panning against ENL YEATS; TAG = amber codon (BuK); 7-mer library positions V1-V7
ENDPOINT_NAME: percent (share of sequence reads) (%)
Give the value in % but do not write % after it.

In: Give the reported percent (share of sequence reads) for TAIFCYTAG (system: ENL YEATS domain (AviSUMO-ENL YEATS) (Homo sapiens, UniProt Q03111)).
Out: 0.002732

In: Give the reported percent (share of sequence reads) for TAGTVTFWY (system: ENL YEATS domain (AviSUMO-ENL YEATS) (Homo sapiens, UniProt Q03111)).
Out: 0.002732

In: Give the reported percent (share of sequence reads) for YEVYCYTAG (system: ENL YEATS domain (AviSUMO-ENL YEATS) (Homo sapiens, UniProt Q03111)).
Out: 0.001821

In: Give the reported percent (share of sequence reads) for WWIIETAGR (system: ENL YEATS domain (AviSUMO-ENL YEATS) (Homo sapiens, UniProt Q03111)).
Out: 0.005464

In: Give the reported percent (share of sequence reads) for YDVYCYW (system: ENL YEATS domain (AviSUMO-ENL YEATS) (Homo sapiens, UniProt Q03111)).
Out: 0.02368

In: Give the reported percent (share of sequence reads) for HCGPRTAGD (system: ENL YEATS domain (AviSUMO-ENL YEATS) (Homo sapiens, UniProt Q03111)).
Out: 0.009106

In: Give the reported percent (share of sequence reads) for QCGLRTAGD (system: ENL YEATS domain (AviSUMO-ENL YEATS) (Homo sapiens, UniProt Q03111)).
Out: 0.003642

In: Give the reported percent (share of sequence reads) for HIKCTAGII (system: ENL YEATS domain (AviSUMO-ENL YEATS) (Homo sapiens, UniProt Q03111)).
Out: 0.0009106

In: Give the reported percent (share of sequence reads) for IHVYCTAGV (system: ENL YEATS domain (AviSUMO-ENL YEATS) (Homo sapiens, UniProt Q03111)).
Out: 0.0009106

In: Give the reported percent (share of sequence reads) for LTAGSSASG (system: ENL YEATS domain (AviSUMO-ENL YEATS) (Homo sapiens, UniProt Q03111)).
Out: 0.0009106

In: Give the reported percent (share of sequence reads) for HFTLFTAGG (system: ENL YEATS domain (AviSUMO-ENL YEATS) (Homo sapiens, UniProt Q03111)).
Out: 0.001821

* * *

Biological target: ENL YEATS domain (AviSUMO-ENL YEATS) (Homo sapiens, UniProt Q03111)
Construct: encoding ENL YEATS (aa 1−148) was cloned in pET28a-; made in house; host or cells: E. coli BL21(DE3pLysS), co-expressed with BirA (pBirAcm)
Sequence (Q03111 1-148): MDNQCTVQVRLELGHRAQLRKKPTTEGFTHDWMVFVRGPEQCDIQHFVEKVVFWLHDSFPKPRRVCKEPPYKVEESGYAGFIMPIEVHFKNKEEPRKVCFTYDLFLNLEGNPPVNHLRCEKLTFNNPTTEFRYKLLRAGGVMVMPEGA
Assay: Phage panning of BuK-containing 7-mer library against AviSUMO-ENL YEATS with Illumina NGS abundance
Conditions: sheet ENLR3: round 3 of panning against ENL YEATS; TAG = amber codon (BuK); 7-mer library positions V1-V7
Assignment: determine reported percent (share of sequence reads) for the given substances.
Give the value in % but do not write % after it.

In: Form field: reported percent (share of sequence reads) of TAGWIIETAGG
Out: 0.005464

In: Form field: reported percent (share of sequence reads) of WWVAGPTAG
Out: 0.06374

In: Form field: reported percent (share of sequence reads) of FDVYCYTAG
Out: 0.001821

In: Form field: reported percent (share of sequence reads) of DMFRSTAGI
Out: 0.0009106

In: Form field: reported percent (share of sequence reads) of DLVYCYTAG
Out: 0.0009106

In: Form field: reported percent (share of sequence reads) of LLAFLWL
Out: 0.0009106

In: Form field: reported percent (share of sequence reads) of CYPTAGKCC
Out: 0.0009106

In: Form field: reported percent (share of sequence reads) of QCGPRTAGY
Out: 0.009106

In: Form field: reported percent (share of sequence reads) of CHMLCTAGD
Out: 0.05099

In: Form field: reported percent (share of sequence reads) of YDVYCFTAG
Out: 0.001821

In: Form field: reported percent (share of sequence reads) of LWIFTPTAG
Out: 0.003642

In: Form field: reported percent (share of sequence reads) of WNCLYTAGD
Out: 0.003642

In: Form field: reported percent (share of sequence reads) of SVIYCYTAG
Out: 0.008196

In: Form field: reported percent (share of sequence reads) of QCGPQTAGD
Out: 0.001821

In: Form field: reported percent (share of sequence reads) of HLTLFYG
Out: 0.002732

In: Form field: reported percent (share of sequence reads) of SCVVFTAGI
Out: 0.001821

In: Form field: reported percent (share of sequence reads) of WFILYTAGD
Out: 0.02277

In: Form field: reported percent (share of sequence reads) of IGSIHYTAG
Out: 0.0009106

In: Form field: reported percent (share of sequence reads) of KCGPRTAGD
Out: 0.008196

In: Form field: reported percent (share of sequence reads) of WWIIDTAGG
Out: 0.02641

In: Form field: reported percent (share of sequence reads) of YDVYYYTAG
Out: 0.006374

* * *

Where a SMILES comes first, the peptide text is derived from it. The star is where a group is joined. Butyryl = CCCC(=O)*
ENDPOINT_NAME: pIC50
Reminder that pIC50 is minus the log10 of a molar concentration.

In: Give the reported pIC50 for CCCC(=O)NCCCC[C@H](NC(=O)[C@H](CCC(=O)O)NC(=O)[C@@H](NC(=O)[C@@H](NC(=O)[C@H](Cc1c[nH]c2ccccc12)NC(=O)[C@@H](N)Cc1c[nH]c2ccccc12)[C@@H](C)CC)[C@@H](C)CC)C(=O)NCC(N)=O [ENL-S2] (H-WWIIEK(Butyryl)G-NH2; N-terminus assumed) (system: ENL YEATS domain (His-ENL YEATS) (Homo sapiens, UniProt Q03111)).
Out: 5.92

* * *

Target: ENL YEATS domain (AviSUMO-ENL YEATS) (Homo sapiens, UniProt Q03111)
Construct: encoding ENL YEATS (aa 1−148) was cloned in pET28a-; made in house; host or cells: E. coli BL21(DE3pLysS), co-expressed with BirA (pBirAcm)
Sequence (Q03111 1-148): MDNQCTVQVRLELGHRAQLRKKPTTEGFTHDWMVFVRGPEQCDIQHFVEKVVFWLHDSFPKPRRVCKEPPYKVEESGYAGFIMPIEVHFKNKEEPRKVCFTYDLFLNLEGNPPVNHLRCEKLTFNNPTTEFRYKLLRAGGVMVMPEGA
Assay: Phage panning of BuK-containing 7-mer library against AviSUMO-ENL YEATS with Illumina NGS abundance
Conditions: sheet ENLR3: round 3 of panning against ENL YEATS; TAG = amber codon (BuK); 7-mer library positions V1-V7
ENDPOINT_NAME: percent (share of sequence reads) (%)
Give the value in % but do not write % after it.

In: Form field: reported percent (share of sequence reads) of RTVYCYTAG
Out: 0.1293

In: Form field: reported percent (share of sequence reads) of CTYVITAGV
Out: 0.0009106

In: Form field: reported percent (share of sequence reads) of FTWSTAGED
Out: 0.0009106

In: Form field: reported percent (share of sequence reads) of WWIIVTAGG
Out: 0.003642

In: Form field: reported percent (share of sequence reads) of LFIALPTAG
Out: 0.0009106

In: Form field: reported percent (share of sequence reads) of YDVYCNTAG
Out: 0.002732

In: Form field: reported percent (share of sequence reads) of CYVCRFL
Out: 0.0009106

In: Form field: reported percent (share of sequence reads) of FEISEWTAG
Out: 0.001821

In: Form field: reported percent (share of sequence reads) of ILATAGSVN
Out: 0.0009106

In: Form field: reported percent (share of sequence reads) of WSIIETAGG
Out: 0.002732

In: Form field: reported percent (share of sequence reads) of YDVYRYTAG
Out: 0.008196

In: Form field: reported percent (share of sequence reads) of HLTLFTAGG
Out: 2.552

In: Form field: reported percent (share of sequence reads) of YDVYCCTAG
Out: 0.004553

In: Form field: reported percent (share of sequence reads) of DDVYCYTAG
Out: 0.006374

In: Form field: reported percent (share of sequence reads) of TAGVMSLYS
Out: 0.001821

In: Form field: reported percent (share of sequence reads) of HSIYCYTAG
Out: 0.0009106

In: Form field: reported percent (share of sequence reads) of HAIYFYTAG
Out: 0.0009106

In: Form field: reported percent (share of sequence reads) of YDVYWYTAG
Out: 0.002732

In: Form field: reported percent (share of sequence reads) of FLTRCML
Out: 0.0009106

In: Form field: reported percent (share of sequence reads) of LCGPRTAGD
Out: 0.0009106

In: Form field: reported percent (share of sequence reads) of SCPPRTAGD
Out: 0.009106

In: Form field: reported percent (share of sequence reads) of HPIYCYTAG
Out: 0.0009106

In: Form field: reported percent (share of sequence reads) of ATAGSFHYL
Out: 0.0009106

In: Form field: reported percent (share of sequence reads) of YDVHCYTAG
Out: 0.004553

In: Form field: reported percent (share of sequence reads) of HTAGSFCRL
Out: 0.0009106

In: Form field: reported percent (share of sequence reads) of HTRSMTAGN
Out: 0.0009106

In: Form field: reported percent (share of sequence reads) of SQCTAGECA
Out: 0.001821

In: Form field: reported percent (share of sequence reads) of KMPFTAGIS
Out: 0.0009106

In: Form field: reported percent (share of sequence reads) of RWIIETAGG
Out: 0.006374

In: Form field: reported percent (share of sequence reads) of LTCYCYTAG
Out: 0.03551

In: Form field: reported percent (share of sequence reads) of CWSTAGNGD
Out: 0.0009106

In: Form field: reported percent (share of sequence reads) of HLNLFTAGG
Out: 0.001821

In: Form field: reported percent (share of sequence reads) of QCGPRTAGD
Out: 8.24

In: Form field: reported percent (share of sequence reads) of YVVYCYTAG
Out: 0.003642

In: Form field: reported percent (share of sequence reads) of YDLYCYTAG
Out: 0.002732

In: Form field: reported percent (share of sequence reads) of YDVCCYTAG
Out: 0.005464

In: Form field: reported percent (share of sequence reads) of YDVYCYTAG
Out: 55.1932

In: Form field: reported percent (share of sequence reads) of WWIIETAGW
Out: 0.02459

In: Form field: reported percent (share of sequence reads) of YDVYCYL
Out: 0.001821

In: Form field: reported percent (share of sequence reads) of TAGTLWNVG
Out: 0.001821

In: Form field: reported percent (share of sequence reads) of LTAGTVLDP
Out: 0.0009106

In: Form field: reported percent (share of sequence reads) of QCGPWTAGD
Out: 0.003642

In: Form field: reported percent (share of sequence reads) of NAIYCYTAG
Out: 0.0009106

In: Form field: reported percent (share of sequence reads) of CLPWTAGSS
Out: 0.006374

In: Form field: reported percent (share of sequence reads) of FLFDTTAGT
Out: 0.0009106
